B1: LYSMD4 (parent)
chain: LLQRELAQEDSLNKLALQYGCKVA

# Variants of: B1
# PROTOCOL_TEXT: protein stability index of a GFP-peptide fusion (GPS, HEK-293T) (PSI 1-6); higher = more stable;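 further: lentivirally expressed fusions sorted by FACS into six bins by GFP to DsRed ratio, PSI derived from sequencing read proportions per bin multiplied by bin number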
# CONDITION_PARAMETERS: c terminus: a fixed tail appended
Record T whenever protein stability index is at 2 or higher; record F when lower.

L15G    T
G20F    F
L1N    T

Enquiry: Does the variant `L15C` have recorded protein stability index that is 2 or more?
Return: T
